Target: human PAH with the R408W mutation (Homo sapiens, UniProt P00439, R408W)
Construct: expressed in transfected cells
Sequence (P00439 whole entry R408W): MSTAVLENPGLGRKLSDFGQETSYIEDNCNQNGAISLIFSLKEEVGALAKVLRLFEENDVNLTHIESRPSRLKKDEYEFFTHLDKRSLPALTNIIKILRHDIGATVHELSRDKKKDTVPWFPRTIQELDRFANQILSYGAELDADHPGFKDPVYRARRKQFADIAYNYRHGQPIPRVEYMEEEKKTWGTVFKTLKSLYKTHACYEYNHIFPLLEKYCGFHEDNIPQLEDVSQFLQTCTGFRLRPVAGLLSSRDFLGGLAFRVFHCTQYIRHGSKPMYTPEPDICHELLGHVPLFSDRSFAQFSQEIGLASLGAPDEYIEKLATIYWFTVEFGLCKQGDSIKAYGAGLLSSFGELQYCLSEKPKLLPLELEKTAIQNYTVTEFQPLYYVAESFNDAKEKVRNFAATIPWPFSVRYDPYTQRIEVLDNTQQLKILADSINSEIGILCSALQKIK
Assay: Cell Based Phenylalanine Flux Assay
Conditions: A375 cells expressing human R408W PAH; 24 hrs compound incubation; 13C-Tyrosine by LC-MS; average where tested multiple times; read-out: AC50
Measurement Label: AC50

# example entries with known answers
Molecule: C[C@@H]1CN(C(=O)c2nnc(-c3ccc(F)cn3)o2)[C@@H](c2nc3ccccc3s2)c2nc[nH]c21 [Example 1753]
Assay Result: 1000 to 5000 nM
//
Molecule: O=C(c1ocnc1C1CC1)N1CC2(CC2)c2[nH]cnc2[C@@H]1c1nc2ccccc2s1 [Example 1670]
Assay Result: 1000 to 5000 nM
//
Molecule: O=C(CCc1nccs1)N1CCc2[nH]cnc2[C@@H]1c1nc2c(F)cccc2s1 [Example 1078]
Assay Result: > 5000 nM

Quick one: give me AC50 for each item below, same order please.
1. O=C(c1sc(N2CCOCC2)nc1C(F)(F)F)N1CCc2[nH]cnc2[C@@H]1c1nc2c(F)cccc2s1 [Example 1634]
2. O=C(c1cc2cccnn2c1)N1CCc2[nH]cnc2[C@H]1c1nc2ccccc2s1 [Example 1127]
3. N#Cc1ncoc1C(=O)N1CC2(CC2)c2[nH]cnc2[C@H]1c1nc2ccccc2s1 [Example 1664]
4. CC(C)(C)OC(=O)N1CC(c2nnc(C(=O)N3CCc4[nH]cnc4[C@H]3c3nc4ccccc4s3)o2)C1 [Example 1893]
5. O=C(c1cnc(NC2CC2)s1)N1CCc2[nH]cnc2[C@H]1c1nc2ccccc2s1 [Example 1183]

["500 to 1000 nM", "500 to 1000 nM", "1000 to 5000 nM", "500 to 1000 nM", "< 500 nM"]

The reported measurements were obtained from patent US20250171438A1.
